The measurements presented in this section are drawn from PubChem BioAssay AID1159580.

Consider the following molecules and their measured normalized growth readings.
# ASSAY_EXPLANATION: chemical genetic growth profiling, strain panel (AID 1159580);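 note: tested at 20 µM; growth read once vehicle control cultures reached saturation at 30 °C; 1 = growth at the plate median or of vehicle wells; lower values mean less growth of the strain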
# MEASUREMENT_SETUP: S. cerevisiae deletion strains, growth OD, locus YDR195W, strain ref2
Among all 5,500 compounds or so, about 2,000 (36%) were called active. Roughly 18% stayed inconclusive and do not appear here. Some of the results follow.
Just the number.

Previously resolved entries follow.
MOLECULE	EXPERIMENTAL_VALUE
Nc1c2c(nc3ccccc13)CCCC2O (stereo not given)	0.917
COC(=O)C[C@H]1C(C)(C)C2(O)OC34CC2C(=O)[C@]1(C)C3CC[C@]1(C)C4=CC(=O)O[C@H]1c1ccoc1 (stereo not given in full)	0.963

// lookup normalized growth for CCOc1ccc2nc3cc(N)ccc3c(N)c2c1
0.823

Another: COc1ccc2c3c([nH]c2c1)C(C)=NCC3
0.954

Another: OC(CCN1CCCCC1)(c1ccccc1)C1CC2C=CC1C2 (stereo not given)
1.01

Another: CNCc1ccccc1
0.999

Another: CCOC(=O)OC(C)OC(=O)C1N2C(=O)C(NC(=O)[C@H](N)c3ccccc3)C2SC1(C)C (stereo not given in full)
0.985

Another: OC(CCN1CCCCC1)(c1ccccc1)C1CCCCC1 (stereo not given)
0.927

Another: CC(C)=CCCC1(C)C=Cc2c(O)c3c(c(CC=C(C)C)c2O1)OC12C(=CC4CC1C(C)(C)OC2(C/C=C(/C)C(=O)O)C4=O)C3=O (stereo not given)
1.11

Another: CC(C)=CCCC1(C)C=Cc2c(O)c3c(c(CC=C(C)C)c2O1)OC12C(=CCCC1C(C)(C)O[C@@]2(C/C=C(\C)C(=O)O)C(=O)O)C3=O (stereo not given in full)
1.12

----------
# ASSAY_EXPLANATION: chemical genetic growth profiling, strain panel (AID 1159580);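 note: tested at 20 µM; growth read once vehicle control cultures reached saturation at 30 °C; 1 = growth at the plate median or of vehicle wells; lower values mean less growth of the strain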
# MEASUREMENT_SETUP: S. cerevisiae deletion strains, growth OD, locus YLR268W, strain sec22
The whole screen tested about 5,500 compounds, of which about 2,000 (36%) were called active. Not shown: some 18% with an inconclusive outcome. No stated cut-off is given here; in the data, active means normalized growth mostly below about 0.91 (no sharp cut-off); inconclusive means no clear call, values can overlap the other calls; inactive means mostly above about 0.92. The list shows a part of the results.
Pick one and only one: true (1) for active, false (0) for inactive

COMPOUND	CATEGORY_LABEL
COc1ccc2c(c1)c(CC(=O)O)c(C)n2C(=O)c1ccc(Cl)cc1	false (0)
C[C@@H]1CC[C@H]2[C@@H](C)C(O)O[C@@H]3O[C@@]4(C)CC[C@@H]1[C@]32OO4 (stereo partly drawn)	true (1)
C/C=C(/C)C(=O)O[C@H]1CC[C@@]2(C)[C@@H]3CC[C@H]4[C@]5(O)C[C@H](O)[C@@]6(O)[C@@H](CN7C[C@@H](C)CC[C@H]7[C@@]6(C)O)[C@]5(O)C[C@@]42O[C@]13O	false (0)
CCC(C)C(=O)O[C@H]1[C@H](O)C2C(CN3CC(C)CCC3[C@@]2(C)O)C2C[C@]34O[C@]5(O)C(OC(=O)C(C)(O)CC)CC[C@@]3(C)C5C(OC(C)=O)[C@@H](OC(C)=O)C4[C@@]21O (stereo partly drawn)	false (0)
C[C@@H]1C(=O)O[C@H]2[C@H]1CC[C@@]1(C)C=CC(=O)[C@@]3(C)O[C@@]213	false (0)
NC(Cc1c[nH]c2ccccc12)C(=O)O (stereo not drawn)	false (0)

Status in this test for CC1C(=O)OC2C1CCC1(C)C=CC(=O)C3(C)OC213 (stereo not drawn) ?
false (0)

Another: COc1ccc2c(c1)c(CC(=O)OCC(=O)O)c(C)n2C(=O)c1ccc(Cl)cc1
false (0)
